All figures here come from paper PMC12530850.

biological target: α-amylase; test: α-amylase inhibition assay (starch substrate); type: biochemical; conditions: pH 6.9, 35 °C
value type: IC50
Lab note: write values as number then unit, every time.

See these solved cases before continuing.
structure as smiles | experimental value
COc1cccc2cc(/C(C)=N/NC(=S)NCc3ccccc3)c(=O)oc12 | 265 nM
CCOc1cccc2cc(/C(C)=N/NC(=O)c3ccco3)c(=O)oc12 | 189 nM
COc1cccc2cc(/C(C)=N/NC(=S)NCC(C)C)c(=O)oc12 | 237 nM
COc1cccc2cc(/C(C)=N/NC(=S)Nc3ccc(C)cc3C)c(=O)oc12 | 198 nM

QUERY: Fill in the blank: the reported IC50 of `CCOc1cccc2cc(/C(C)=N/NC(=O)c3cnccn3)c(=O)oc12` is ____.
RESULT: 479 nM

QUERY: Fill in the blank: the reported IC50 of `CCOc1cccc2cc(/C(C)=N/NC(=O)c3ccc(Br)cc3)c(=O)oc12` is ____.
RESULT: 209 nM

QUERY: Fill in the blank: the reported IC50 of `COc1cccc2cc(/C(C)=N/NC(N)=S)c(=O)oc12` is ____.
RESULT: 146 nM

QUERY: Fill in the blank: the reported IC50 of `CCOc1cccc2cc(/C(C)=N/NC(=O)c3ccccc3OC)c(=O)oc12` is ____.
RESULT: 177 nM

###

target: α-amylase; experiment: α-amylase inhibition assay (starch substrate); format: biochemical; conditions: pH 6.9, 35 °C
# IC50 values compiled below
Lab note: write values as number then unit, every time.

compound | experimental value
CCOc1cccc2cc(/C(C)=N/NC(=O)c3c[nH]c4ccccc34)c(=O)oc12 [Compound 3f] | 425 nM
COc1cccc2cc(/C(C)=N/NC(=S)NCc3ccc(C)cc3)c(=O)oc12 [Compound 5c] | 128 nM

Next compound, IC50 to be filled in.
QUERY: For the record CCOc1cccc2cc(/C(C)=N/NC(=O)c3cccs3)c(=O)oc12 [Compound 3a] , what value of IC50 is listed for α-amylase?
RESULT: 430 nM
